# tgt: affinity purified antibody IHuP#002-001-ABL-08
# assay_method_text: ECL bridging/competition assay, 10 ug/ml ISV, 400 ng/ml antibody, labelled SEQ ID NO:1
quantity_measured: ECLU confirmatory assay (ECLU)
All answers are understood in ECLU, so give the number only.

Here are 3 binders together with their reported answers.
| binder | ECLU confirmatory assay / ECLU |
| --- | --- |
| Example 1C: wildtype (VHH) VHH: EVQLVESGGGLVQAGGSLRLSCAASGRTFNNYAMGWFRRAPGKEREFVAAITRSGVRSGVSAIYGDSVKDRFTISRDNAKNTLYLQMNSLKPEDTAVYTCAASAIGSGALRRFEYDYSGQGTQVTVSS | 2710 |
| Example 1C: (A14P, R39Q, K83R, T91Y, Q108L)-3A (VHH) VHH: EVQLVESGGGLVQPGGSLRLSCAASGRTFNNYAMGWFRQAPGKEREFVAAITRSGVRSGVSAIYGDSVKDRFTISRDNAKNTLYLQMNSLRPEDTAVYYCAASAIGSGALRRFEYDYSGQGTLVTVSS | 3300 |
| Example 1C: (A14P, K83R, Q108L) (VHH) VHH: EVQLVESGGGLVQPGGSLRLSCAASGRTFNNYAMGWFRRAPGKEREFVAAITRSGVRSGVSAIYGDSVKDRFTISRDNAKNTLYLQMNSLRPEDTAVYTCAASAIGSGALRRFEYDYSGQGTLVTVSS | 319 |

Consider the record given below.
[ask] Need ECLU confirmatory assay, item Example 1C: (A14P, R39Q, K83R, T91Y, Q108L)-QA (VHH) VHH: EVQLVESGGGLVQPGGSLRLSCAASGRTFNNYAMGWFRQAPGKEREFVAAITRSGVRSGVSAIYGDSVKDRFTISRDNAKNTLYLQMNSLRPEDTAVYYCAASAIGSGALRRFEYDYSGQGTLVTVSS
[reply] 1210
